procedure_details: in vitro
Assay type: in vitro ADME, human
experimental_parameters: human, serum, Table 5; human serum, 37° C.; read-out: Serum Half-life (converted)
Structures can show the parent of a compound that is named as a salt.
Doc: threshold 8 min (exclusive). Items with half-life beneath it return 1; others return -1.

I'd appreciate it if you could check whether C[C@]12CC[C@H]3[C@@H](CCC4=CC(=O)CC[C@@]43C)[C@@H]1CC[C@@H]2OC(=O)OCOC(=O)COC(=O)C[N+](C)(C)C has half-life smaller than 8 min.
-1

Regarding C#CC[N+](C)(COC(=O)CCC)C(C)Cc1ccccc1 (stereo not drawn) , kindly confirm whether its half-life is beneath 8 min.
1

Is the reported half-life for C#CC[N+](C)(COC(C)=O)C(C)Cc1ccccc1 (stereo not drawn) [deprenyl-N-acetoxymethyl, bromide salt] strictly below 8 min?
1

Decide: half-life of Cn1c(=O)c2c(ncn2COC(=O)C[N+](C)(C)C)n(C)c1=O strictly below 8 min?
1

# TODO verify half-life < 8 min strictly for this compound: CC(=O)OC1CC(C(=O)O[C@H]2[C@@H](O)C[C@H](O[C@H]3[C@@H](O)C[C@H](O[C@H]4[C@@H](O)C[C@H](O[C@H]5CC[C@@]6(C)[C@H](CC[C@@H]7[C@@H]6C[C@@H](O)[C@]6(C)[C@@H](C8=CC(=O)OC8)CC[C@]76O)C5)O[C@@H]4C)O[C@@H]3C)O[C@@H]2C)[N+](C)(C)C1 (stereo partly drawn)
1

In plain terms, does COc1ccc2c(c1)c(CC(=O)OCOC(=O)CCCCCNC(=O)C[C@H](C[N+](C)(C)C)OC(C)=O)c(C)n2C(=O)c1ccc(Cl)cc1 come in under 8 min for half-life?
-1

* * *

procedure_details: in vitro
Type: in vitro ADME, human
experimental_parameters: human, serum, Table 4; read-out: serum half-life (converted)
Listing of recorded half-life by entry.
Number first, unit second: that is the form wanted.

>>> df
                                   compound  result_value
0  CC(=O)O[C@H](CC(=O)NCCCCCC(=O)OC(C)Cc1ccc([N+](=O)[O-])cc1)C[N+](C)(C)C (stereo partly drawn)      21.4 min
1  CC(=O)O[C@H](CC(=O)NCCCCCC(=O)OCCc1ccc([N+](=O)[O-])cc1)C[N+](C)(C)C     0.132 min

Alright, here's another compound for you.
Name the reported half-life value associated with the compound CC(=O)O[C@H](CC(=O)NCCC(=O)OCCc1ccc([N+](=O)[O-])cc1)C[N+](C)(C)C
5.5 min

* * *

procedure_details: in vitro
Format: in vitro ADME, human
experimental_parameters: human, serum, Table 5; human serum, 37° C.; read-out: Serum Half-life (converted)
value_type: half-life (min)
The response must be a number in min with no trailing unit.

The cases that follow already have their half-life on record.
compound	units	half-life
CC1OC(OC2CCC3(C)C(CCC4C3CC(OC(=O)OC[N+](C)(C)C)C3(C)C(C5=CC(=O)OC5)CCC43O)C2)CC(O)C1OC1CC(O)C(OC2CC3OC(=O)OC3C(C)O2)C(C)O1 (stereo not shown)	min	42
CCCCCCCCCCCC(=O)OC[N+]1(CCCOc2ccc(F)cc2)CC[C@H](NC(=O)c2cc(Cl)c(N)cc2OC)[C@H](OC)C1 (relative stereo)	min	5.4
CCCCCCCCCCCC(=O)OCn1c(=O)c(F)cn(COC(=O)CCC[N+](C)(C)C)c1=O	min	192

Value lookup for half-life; key = CC(=O)O[C@H](CC(=O)O[C@H]1CC[C@H]2[C@@H]3CCc4cc(O)ccc4[C@H]3CC[C@]12C)C[N+](C)(C)C
240

Tell me the measured half-life of C[C@H]1O[C@@H](O[C@H]2[C@@H](O)C[C@H](O[C@H]3[C@@H](O)C[C@H](O[C@H]4CC[C@@]5(C)[C@H](CC[C@@H]6[C@@H]5C[C@@H](O)[C@]5(C)[C@@H](C7=CC(=O)OC7)CC[C@]65O)C4)O[C@@H]3C)O[C@@H]2C)C[C@H](O)[C@@H]1OC(=O)CCCOC(=O)CCC[N+](C)(C)C , please.
420

Reported half-life, compound O=C(OCCc1ccc([N+](=O)[O-])cc1)c1ccc(CN2CCOCC2)cc1 : ____
0.762
